system: Cathepsin D (Homo sapiens, UniProt P07339)
Sequence (P07339 65-162 limits assumed): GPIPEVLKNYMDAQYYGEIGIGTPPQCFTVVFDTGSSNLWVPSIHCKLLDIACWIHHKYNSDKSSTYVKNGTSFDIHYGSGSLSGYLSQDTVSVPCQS
Sequence (P07339 169-412 limits assumed): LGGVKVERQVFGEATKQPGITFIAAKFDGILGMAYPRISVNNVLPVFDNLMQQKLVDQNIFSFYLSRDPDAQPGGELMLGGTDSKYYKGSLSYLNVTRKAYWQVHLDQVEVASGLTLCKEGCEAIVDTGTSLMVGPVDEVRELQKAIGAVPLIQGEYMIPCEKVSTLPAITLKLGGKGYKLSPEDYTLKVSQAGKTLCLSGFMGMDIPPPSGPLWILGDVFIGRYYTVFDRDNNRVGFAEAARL
Reported IC50 values are given for each entry in this list.
Use nM as the unit, but write only the number.

Ask: In one line, give reported IC50 of the entry COc1cc(Br)c(OC(=O)N(Cc2ccccc2)CC2CNC[C@H]2CN(CCc2ccc(Cl)cc2Cl)C(=O)CCCc2ccccc2)cc1OC (stereo not given in full) [Aspartyl protease inhibitor, 16] .
Result: 1050

Consider the record given below.
Ask: Using the record for COc1cc(Br)c(OC(=O)N(Cc2ccccc2)CC2CNC[C@H]2CN(CCc2ccc(Cl)cc2Cl)C(=O)CCN2C(=O)c3ccccc3C2=O)cc1OC (stereo not given in full) [Aspartyl protease inhibitor, 17] , state its measured IC50.
Result: 570

----------
system: Gag-Pol polyprotein (Human immunodeficiency virus type 1 group M subtype B (isolate BRU/LAI), UniProt P03367)
experiment_notes: Enzymatic Assay
protocol_conditions: pH 5.5
Parameter pIC50: see the listing below.
Quick note: pIC50 values are minus log10 of concentrations in mol/L.

Answered examples (4):
Ask: Report measured pIC50; entry is Cc1ccc(S(=O)(=O)N(CC(C)C)C[C@@H]2CNCC2CN(Cc2ccccc2)C(=O)COc2c(C)cccc2C)cc1 (stereo not given in full)
Result: 4.92

Ask: Tell me its pIC50 given Cc1cccc(C)c1OCC(=O)N(Cc1ccccc1)CC1CNC[C@H]1CN(CC(C)C)S(=O)(=O)c1ccccc1 (stereo not given in full) as the entry.
Result: 5.66

Ask: Quickly give me recorded pIC50 for Cc1cccc(C)c1OCC(=O)N(Cc1ccccc1)CC1CNC[C@H]1CN(CC(C)C)S(=O)(=O)c1ccc(N)cc1 (stereo not given in full)
Result: 5.48

Ask: Please give the documented pIC50 of COc1cc(Br)c(OC(=O)N(Cc2ccccc2)CC2CNC[C@H]2CN(CCc2ccc(Cl)cc2Cl)C(=O)CCN2C(=O)c3ccccc3C2=O)cc1OC (stereo not given in full)
Result: 4.66

// next entry
Ask: Output pIC50 of COc1cc(Br)c(OC(=O)N(Cc2ccccc2)CC2CNC[C@H]2CN(CCc2ccc(Cl)cc2Cl)C(=O)CCCc2ccccc2)cc1OC (stereo not given in full)
Result: 4.70

----------
Test system Cathepsin D (Homo sapiens), IC50 listed for each of the compounds.

# example entries with known answers
Ask: Please report the measured IC50 for Cc1cccc(C)c1OCC(=O)N(Cc1ccccc1)CC1CNC[C@H]1CN(CC(C)C)S(=O)(=O)c1ccccc1 (stereo partly drawn)
Result: > 40 µM

Ask: Output IC50 of Cc1cccc(C)c1OCC(=O)N(Cc1ccccc1)CC1CNC[C@H]1CN(CC(C)C)S(=O)(=O)c1ccc(N)cc1 (stereo partly drawn)
Result: > 40 µM

Proceeding to the next compound to report its IC50.
Ask: Report measured IC50; entry is Cc1ccc(S(=O)(=O)N(CC(C)C)C[C@@H]2CNCC2CN(Cc2ccccc2)C(=O)COc2c(C)cccc2C)cc1 (stereo partly drawn)
Result: > 40 µM

Source: BindingDB's records for doi:10.1002/cmdc.200500008
